Each record here notes measured IC50.
Tested on: human lung cancer strain NCI-H441
Type: cell-based
*1 amine or outer side, *2 acyl side, *3 side chain or, on linkers, in order; H or OH if unused. Where a SMILES comes first, the peptide text is derived from it. Bridges are numbered along the chain shown (N, C = ends). [ ]: non-standard residue; d: D form. The star is where a group is joined. hPhe(3-Cl-4-CF3) = N[C@@H](CCc1ccc(C(F)(F)F)c(Cl)c1)C(=O)O; X40 = Cc1ccc(C[C@@H](C(=O)[*:2])N(CC(C)C)[*:1])cc1; NMeGly(cPent) = CN[C@H](C(=O)O)C1CCCC1; NMeD = CN[C@@H](CC(=O)O)C(=O)O; NMeL = CN[C@@H](CC(C)C)C(=O)O; Morpholide = C1CN(*)CCO1; NMeA = CN[C@@H](C)C(=O)O; Ac5c = NC1(C(=O)O)CCCC1; Aze = O=C(O)[C@@H]1CCN1; Sar = CNCC(=O)O
Quote the value and follow it with the unit of measurement.

// solved cases for IC50 follow
| COMPOUND | STUDY_TARGET | TEST_RESULT |
| --- | --- | --- |
| CCO[C@@H]1C[C@H]2C(=O)NC3(CC(C)(C)C3)C(=O)N(C)[C@@H](C3CCCC3)C(=O)N(C)[C@H](C(=O)N3CCCC3)CC(=O)N(C)[C@@H](CC)C(=O)N[C@@H]([C@@H](C)CC)C(=O)N(C)CC(=O)N(C)[C@H]3C/C=C\CCN(C3=O)[C@@H](Cc3ccc(C(F)(F)F)cc3)C(=O)N(C)CC(=O)N[C@@H](CCc3cc(F)c(C(F)(F)F)c(F)c3)C(=O)N2C1 | human lung cancer strain NCI-H441 | 0.0148 µM |
| CC[C@H](C)[C@@H]1NC(=O)[C@H](CC(C)C)N(C)C(=O)C[C@@H](C(=O)N2CCOCC2)N(C)C(=O)[C@H](C2CCCC2)N(C)C(=O)C2(CCCC2)NC(=O)[C@@H]2CCCN2C(=O)[C@H](CCc2ccc(C(F)(F)F)c(Cl)c2)NC(=O)CN(C)C(=O)[C@H](Cc2ccc(C)cc2)N(CC(C)C)C(=O)[C@@H]2CCN2C(=O)[C@H](C)N(C)C1=O [PP0056] ([NMeL]I[NMeA][Aze][X40][Sar][hPhe(3-Cl-4-CF3)]P[Ac5c][NMeGly(cPent)][NMeD]-Morpholide; lactam N-11) | human lung cancer strain NCI-H441 | 0.0496 µM |
| CCO[C@@H]1C[C@H]2C(=O)NC3(CC(C)(C)C3)C(=O)N(C)[C@@H](C3CCCC3)C(=O)N(C)[C@H](C(=O)N(C)CC)CC(=O)N(C)[C@@H]([C@@H](C)OC)C(=O)N[C@@H]([C@@H](C)CC)C(=O)N(C)CC(=O)N(C)[C@H]3C/C=C\CCN(C3=O)[C@@H](Cc3ccc(C(F)(F)F)cc3)C(=O)N(C)CC(=O)N[C@@H](CCc3cc(F)c(C(F)(F)F)c(F)c3)C(=O)N2C1 | human lung cancer strain NCI-H441 | 0.0132 µM |
| CCO[C@@H]1C[C@H]2C(=O)NC3(CCC3)C(=O)N(C)[C@@H](C3CCCC3)C(=O)N(C)[C@H](C(=O)N3CCOCC3)CC(=O)N(C)[C@@H](CC(C)C)C(=O)N[C@@H](C3CC(F)(F)C3)C(=O)N(C)CC(=O)N(C)[C@H]3CCCCN(C3=O)[C@@H](Cc3ccc(C(F)(F)F)cc3)C(=O)N(C)CC(=O)N[C@@H](CCc3cc(F)c(C(F)(F)F)c(F)c3)C(=O)N2C1 | human lung cancer strain NCI-H441 | 0.0167 µM |

Here is the next item to consider.
Qu. // lookup IC50 for CCC[C@H]1C(=O)N[C@@H]([C@@H](C)CC)C(=O)N(C)CC(=O)N(C)[C@H]2C/C=C\CCN(C2=O)[C@@H](Cc2ccc(C(F)(F)F)cc2)C(=O)N(C)CC(=O)N[C@@H](CCc2ccc3c(C)cn(C)c3c2)C(=O)N2C[C@H](OCC)C[C@H]2C(=O)NC2(CC(C)(C)C2)C(=O)N(C)[C@@H](C(CC)CC)C(=O)N(C)[C@H](C(=O)N(C)C)CC(=O)N1C
Ans. 0.0202 µM
